Record form. Attribute: IC50. Fill in for each entry.
Target: PD-1/PD-L1 interaction (PD-1-Ig / PD-L1-His) (Homo sapiens)
Construct: hPDL1(18-239)-TVMV-His; TVMV protease site linker (C); made in house; host or cells: HEK293T
Experiment: PD-1/PD-L1 Homogenous Time-Resolved Fluorescence (HTRF) binding assay
Details: IC50 range class; PD-L1-His 10 nM, PD-1-Ig 20 nM; read-out: Range or IC50

Worked cases, IC50 given:
molecule	observed_value
N#Cc1cncc(COc2cc(OCc3cccc(-c4cccc(COc5cc(OCc6cncc(C#N)c6)c(C(=O)NCCO)cc5Cl)c4Cl)c3Cl)c(Cl)cc2C(=O)NCCO)c1	90.1 to 1000 nM
Cc1c(COc2cc(OCc3cncc(C#N)c3)c(CN(CC3CCCO3)C(CCO)C(=O)O)cc2Cl)cccc1-c1cccc(COc2cc(OCc3cncc(C#N)c3)c(CN(CC3CCCO3)C(CCO)C(=O)O)cc2Cl)c1C (centres unmarked)	0.04 to 20 nM
Cc1c(OCCCN2CCC(CO)CC2)cccc1-c1cccc(OCCCN2CC[C@@H](O)C2)c1C	20.1 to 90 nM
C[C@](CO)(NCc1cc(Cl)c(OCc2cccc(-c3cccc(COc4cc(OCc5cncc(C#N)c5)c(CN[C@](C)(CO)C(=O)O)cc4Cl)c3Cl)c2Cl)cc1OCc1cncc(C#N)c1)C(=O)O	0.04 to 20 nM

Query: For "Cc1c(COc2cc(OCc3cncc(C#N)c3)c(CN[C@H](C(=O)O)[C@H](C)O)cc2Cl)cccc1-c1cccc(COc2cc(OCc3cncc(C#N)c3)c(CN[C@H](C(=O)O)[C@H](C)O)cc2Cl)c1C" , what is its reported IC50?
Response: 0.04 to 20 nM

----------
Molecular target: PD-1/PD-L1 interaction (PD-1-Ig / PD-L1-His) (Homo sapiens)
Construct: hPDL1(18-239)-TVMV-His; TVMV protease site linker (C); made in house; host or cells: HEK293T
Experiment: PD-1/PD-L1 Homogenous Time-Resolved Fluorescence (HTRF) binding assay
Conditions: IC50 range class; PD-L1-His 10 nM, PD-1-Ig 20 nM; read-out: Range or IC50
pIC50: −log10 of the molar value.
Hi there, I'd appreciate the recorded pIC50 for every entry that follows.

Answered examples (4):
compound	pIC50
Cc1c(COc2cc(OCc3cc(F)cc(F)c3)c(CN(C)C(C)(CO)CO)cc2Cl)cccc1-c1cccc(COc2cc(OCc3cc(F)cc(F)c3)c(CN(C)C(C)(CO)CO)cc2Cl)c1C [Example 5012]	7.05 to 7.70
N#Cc1cncc(COc2cc(OCc3cccc(-c4cccc(COc5cc(OCc6cncc(C#N)c6)c(CN[C@@H](CCO)C(=O)O)cc5Cl)c4Cl)c3Cl)c(Cl)cc2CN[C@@H](CCO)C(=O)O)c1 [Example 40190]	7.70 to 10.40
Cc1c(OCCCCCN2CC[C@@H](O)C2)cccc1-c1cccc(OCCCN2CC[C@@H](O)C2)c1C [Example 3003]	7.70 to 10.40
Cc1cc(OCc2cccc(-c3cccc(COc4cc(OCc5cncc(C#N)c5)c(CN[C@@](C)(CO)C(=O)O)cc4Cl)c3C)c2C)c(Cl)cc1CN[C@@](C)(CO)C(=O)O [Example 5507]	7.70 to 10.40

State the recorded pIC50 for every item in the following list.
1. COc1cc(OCc2cccc(-c3cccc(COc4cc(OC)c(CNCc5cc[nH]n5)cc4Cl)c3C)c2C)c(Cl)cc1CNCc1cc[nH]n1 [Example 5032]
2. Cc1c(OCCCN2CCN(CCO)CC2)cccc1-c1cccc(OCCCN2CC[C@@H](O)C2)c1C [Example 2063]
3. Cc1c(COc2cc(OCc3cncc(C#N)c3)c(CN3CCC[C@H]3C(N)=O)cc2Cl)cccc1-c1cccc(COc2cc(OCc3cncc(C#N)c3)c(CN3CCC[C@H]3C(N)=O)cc2Cl)c1C [Example 40680]
4. Cc1ccn(CCNCCCOc2cccc(-c3cccc(OCCCN4CC[C@@H](O)C4)c3C)c2C)n1 [Example 2009]
5. Cc1c(COc2cc(OCc3cncc(C#N)c3)c(CN(CC3CC3)C(CCO)C(=O)O)cc2Cl)cccc1-c1cccc(COc2cc(OCc3cncc(C#N)c3)c(CN(CC3CC3)C(CCO)C(=O)O)cc2Cl)c1C (stereo not shown) [Example 40830]

Response:
1. 7.70 to 10.40
2. 7.05 to 7.70
3. 6.00 to 7.05
4. 7.05 to 7.70
5. 7.70 to 10.40

----------
Molecular target: PD-1/PD-L1 interaction (PD-1-Ig / PD-L1-His) (Homo sapiens, UniProt Q9NZQ7)
Construct: hPDL1(18-239)-TVMV-His; TVMV protease site linker (C); made in house; host or cells: HEK293T
Sequence (Q9NZQ7 with tags, fused parts or gaps): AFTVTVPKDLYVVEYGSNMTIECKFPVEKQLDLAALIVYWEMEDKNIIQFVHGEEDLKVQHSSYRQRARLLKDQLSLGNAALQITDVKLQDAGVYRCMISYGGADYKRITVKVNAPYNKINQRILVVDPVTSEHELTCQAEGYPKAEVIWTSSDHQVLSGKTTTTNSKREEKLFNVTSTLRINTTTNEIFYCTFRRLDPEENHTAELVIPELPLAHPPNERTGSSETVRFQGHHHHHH
Experiment: PD-1/PD-L1 Homogenous Time-Resolved Fluorescence (HTRF) binding assay
Details: IC50 range class; PD-L1-His 10 nM, PD-1-Ig 20 nM; read-out: Range or IC50
pIC50: −log10 of the molar value.
Could you please report measured pIC50 for the items listed next?

The examples below pair each entry with its known result.
compound	pIC50
Cc1c(OCCCN2CC[C@@H](O)C2)cccc1-c1cccc(OCCCN2CCCCC2CO)c1C (mixture of isomers) [Example 2025]	7.05 to 7.70
Cc1c(OCCCNCc2ccccn2)cccc1-c1cccc(OCCCN2CC[C@@H](O)C2)c1C [Example 2024]	7.05 to 7.70
Cc1c(COc2cc(OCc3cncc(C#N)c3)c(CN[C@@H](C(=O)O)[C@@H](C)O)cc2Cl)cccc1-c1cccc(COc2cc(OCc3cncc(C#N)c3)c(CN[C@@H](C(=O)O)[C@@H](C)O)cc2Cl)c1C [Example 40890]	7.70 to 10.40
Cc1cc(OCc2cccc(-c3cccc(COc4cc(OCc5cncc(C#N)c5)c(CN5CCCC[C@H]5C(=O)O)cc4Cl)c3C)c2C)c(Cl)cc1CN1CCCC[C@H]1C(=O)O [Example 5503]	7.70 to 10.40

Here is the next item to consider.
Query: # pIC50 lookup, item CCC[C@@H](C(=O)O)N(C)Cc1cc(Cl)c(OCc2cccc(-c3cccc(COc4cc(OCc5ccc(-n6cccn6)nc5)c(CN(C)[C@@H](CCC)C(=O)O)cc4Cl)c3C)c2C)cc1OCc1ccc(-n2cccn2)nc1 [Example 5026]
Response: 7.70 to 10.40

----------
Molecular target: PD-1/PD-L1 interaction (PD-1-Ig / PD-L1-His) (Homo sapiens, UniProt Q9NZQ7)
Construct: hPDL1(18-239)-TVMV-His; TVMV protease site linker (C); made in house; host or cells: HEK293T
Assay: PD-1/PD-L1 Homogenous Time-Resolved Fluorescence (HTRF) binding assay
Settings: IC50 range class; PD-L1-His 10 nM, PD-1-Ig 20 nM; read-out: Range or IC50
measure_name: IC50

compound	IC50
CC(=O)NC1CCN(CCCOc2cccc(-c3cccc(OCCCN4CC[C@@H](O)C4)c3C)c2C)C1 (stereo partly drawn)	20.1 to 90 nM
Cc1c(COc2cc(OCc3cncc(C#N)c3)c(CNC[C@H](O)CC(=O)O)cc2Cl)cccc1-c1cccc(COc2cc(OCc3cncc(C#N)c3)c(CNC[C@H](O)CC(=O)O)cc2Cl)c1C	0.04 to 20 nM
Cc1c(OCCCN(C)CCc2ccccc2)cccc1-c1cccc(OCCCN2CC[C@@H](O)C2)c1C	90.1 to 1000 nM

Return reported IC50 values for all items listed beneath this line.
1. N#Cc1cncc(COc2cc(OCc3cccc(-c4cccc(COc5cc(OCc6cncc(C#N)c6)c(C(=O)NC6COC6)cc5Cl)c4Cl)c3Cl)c(Cl)cc2C(=O)O)c1
2. N#Cc1cncc(COc2cc(OCc3cccc(-c4cccc(COc5cc(OCc6cncc(C#N)c6)c(C(=O)N6CCOCC6)cc5Cl)c4Cl)c3Cl)c(Cl)cc2C(=O)N2CCOCC2)c1
3. Cc1c(OCCCN2CC[C@@H](O)C2)cccc1-c1cccc(OCCCN2CC[C@@H](O)C2)c1
4. COc1cc(OCc2cccc(-c3cccc(COc4cc(OC)c(CN[C@@H](CCO)C(=O)O)cc4Cl)c3C)c2C)c(Cl)cc1CN[C@@H](CCO)C(=O)O

Response:
["90.1 to 1000 nM", "20.1 to 90 nM", "90.1 to 1000 nM", "0.04 to 20 nM"]

Record IC50 for all entries; do not skip any.
1. Cc1c(OCCCNC2C[C@H](CO)[C@@H](O)[C@H]2O)cccc1-c1cccc(OCCCN[C@@H]2C[C@H](CO)[C@@H](O)[C@H]2O)c1C (stereo partly drawn)
2. Cc1c(OCCCN[C@@H](CO)C(=O)O)cccc1-c1cccc(OCCCN2CC[C@@H](O)C2)c1C

Response:
0.04 to 20 nM
90.1 to 1000 nM

Batch: IC50 for all items listed.
1. Cc1c(OCCCNCCO)cccc1-c1cccc(OCCCNCCO)c1C
2. COC(=O)[C@@H](NCc1cc(Cl)c(OCc2cccc(-c3cccc(COc4cc(OCc5cncc(C#N)c5)c(CN[C@H](C(=O)OC)[C@H](C)O)cc4Cl)c3C)c2C)cc1OCc1cncc(C#N)c1)[C@H](C)O
3. CC(=O)c1cc(Cl)c(OCc2cccc(-c3cccc(COc4cc(OCc5cncc(C#N)c5)c(CN[C@@](C)(CO)C(=O)O)cc4Cl)c3C)c2C)cc1OCc1cncc(C#N)c1

Response:
["20.1 to 90 nM", "1000 to 10000 nM", "0.04 to 20 nM"]
